measurement.notes: Plasma pharmacokinetics of niraparib and M1 by validated LC-MS/MS after a single oral 300 mg dose of 14C-niraparib
Format: in vivo
conditions: human; plasma, single oral dose 300 mg 14C-niraparib, n = 6
measured.metric: Cmax (ng/mL)

[[record]]
compound = "NC(=O)c1cccc2cn(-c3ccc([C@@H]4CCCNC4)cc3)nc12 [niraparib]"
unit_of_measure = "ng/mL"
observed = 540

[[record]]
compound = "O=C(O)c1cccc2cn(-c3ccc([C@@H]4CCCNC4)cc3)nc12 [Compound M1, Amide hydrolysed niraparib]"
unit_of_measure = "ng/mL"
observed = 476


---

measurement.notes: Plasma pharmacokinetics of niraparib and M1 by validated LC-MS/MS after a single oral 300 mg dose of 14C-niraparib
Assay type: in vivo
conditions: human; plasma, single oral dose 300 mg 14C-niraparib, n = 6; read-out: tmax (median)
Reported Tmax values for the following compounds.
measured.metric: Tmax (h)

[[record]]
compound = "NC(=O)c1cccc2cn(-c3ccc([C@@H]4CCCNC4)cc3)nc12"
measured_metric = "Tmax"
observed = 2.49

[[record]]
compound = "O=C(O)c1cccc2cn(-c3ccc([C@@H]4CCCNC4)cc3)nc12 [Compound M1, Amide hydrolysed niraparib]"
measured_metric = "Tmax"
observed = 9.02


---

Reported AUC(0-inf) values for the following compounds.
measurement.notes: Plasma pharmacokinetics of niraparib and M1 by validated LC-MS/MS after a single oral 300 mg dose of 14C-niraparib
Assay type: in vivo
conditions: human; plasma, single oral dose 300 mg 14C-niraparib, n = 6; read-out: AUC0-inf (mean)
Description: Dose reductions were allowed twice. […] All patients provided written informed consent. Blood sampling was done at the following time points: pre-dose, 1, 1.5, 2, 3, 4, 6, 9 and 12 hours (h) after administration and in the morning of Day 2, 3, 4, 5, 8, 11, 15 and 22. […] Separate aliquots were made for radioactivity measurements as well as LC-MS/MS and metabolite profiling experiments. […] Quality control samples were prepared and analysed together with the study samples. […]
measured.metric: AUC(0-inf) (ng·h/mL)

[[record]]
compound = "NC(=O)c1cccc2cn(-c3ccc([C@@H]4CCCNC4)cc3)nc12"
measured_metric = "AUC(0-inf)"
observed = 18500

[[record]]
compound = "O=C(O)c1cccc2cn(-c3ccc([C@@H]4CCCNC4)cc3)nc12 [Compound M1, Amide hydrolysed niraparib]"
measured_metric = "AUC(0-inf)"
observed = 41200

